Every entry's value here was drawn from PubChem BioAssay (NCI).

System: MDA-MB-231 breast
assayProcedure: NCI tumour cell line growth inhibition, 48 h
Where a SMILES comes first, the peptide text is derived from it. [ ]: non-standard residue; d: D form. The star is where a group is joined. ξ: configuration not given here. NMeF = CN[C@@H](Cc1ccccc1)C(=O)O; NMeV = CN[C@H](C(=O)O)C(C)C; ξNMeN = CNC(CC(N)=O)C(=O)O; NMeA = CN[C@@H](C)C(=O)O; ξNMeV = CNC(C(=O)O)C(C)C; Boc = CC(C)(C)OC(=O)*
Use 3 µM as the dividing line for TGI, with the line itself on the y side and lower values as n.

compound=CN(C)c1ccc(/C=C2\C[C@H]3[C@@H]4CC=C5C[C@@H](O)CC[C@]5(C)[C@H]4CC[C@]3(C)C2=O)cc1 classlabel=y
compound=C=C(C)c1cc(C(C)(C)C)cc(C(=C)C)c1S(C)(=O)=O classlabel=y
compound="COC(=O)[C@H](C)N(C)C(=O)C(CC(N)=O)N(C)C(=O)[C@H](Cc1ccccc1)N(C)C(=O)[C@@H]1CCCN1C(=O)[C@H](C(C)C)N(C)C(=O)C(C(C)C)N(C)C(=O)[C@@H](NC(=O)OC(C)(C)C)C(C)C (some centres not stated) (Boc-V[ξNMeV][NMeV]P[NMeF][ξNMeN][NMeA]-OMe)" classlabel=y
compound=C[N+](C)(CCNc1ccc(NCC[N+](C)(C)Cc2ccc([N+](=O)[O-])cc2)c2c1C(=O)c1ccccc1C2=O)Cc1ccc([N+](=O)[O-])cc1 classlabel=y
compound=CNCCCNc1nc2ccccc2c2c(=O)c3cc(F)ccc3sc12 classlabel=n
compound="Cc1ccc(C2=Nc3c(N)nc(N)nc3NC(c3cccc(Nc4ccnc5cc(C(F)(F)F)ccc45)c3)C2)cc1 (configuration not stated)" classlabel=y
compound=COc1cccc2c1O/C(=C\c1ncc([N+](=O)[O-])n1C)C2=O classlabel=n
compound=Cc1nc2c(=O)[nH]ncc2[nH]1 classlabel=y

Okay, now this compound:
-- ask Please check the record COc1cc(OC)c(/C=C/c2cc[n+](C)c3ccccc23)c(OC)c1 and state if its TGI is at or above 3 µM.
-- reply y
